Molecular target: GPR73 (prokineticin 1 receptor) (Homo sapiens, UniProt Q8TCW9)
Construct: expressed in transfected cells; host or cells: HEK 293
Sequence (Q8TCW9 whole entry, species assumed): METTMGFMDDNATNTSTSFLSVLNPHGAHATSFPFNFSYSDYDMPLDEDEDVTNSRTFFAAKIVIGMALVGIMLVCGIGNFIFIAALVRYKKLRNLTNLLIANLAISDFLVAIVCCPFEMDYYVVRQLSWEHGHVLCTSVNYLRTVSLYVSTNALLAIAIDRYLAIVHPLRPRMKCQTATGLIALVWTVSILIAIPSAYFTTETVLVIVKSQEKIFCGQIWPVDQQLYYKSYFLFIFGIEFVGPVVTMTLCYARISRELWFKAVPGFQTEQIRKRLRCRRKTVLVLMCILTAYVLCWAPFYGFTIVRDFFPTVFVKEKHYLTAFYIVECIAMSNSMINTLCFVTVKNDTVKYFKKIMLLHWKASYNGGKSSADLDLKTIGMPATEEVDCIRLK
Assay: PK1 functional assay: Ca2+ mobilization screening for PK1 antagonists on the FLIPR
Assay type: cell-based
Conditions: HEK 293 GPR73 cells; PK1 ligand preparation at its EC50; multiple values = multiple testing; read-out: Ca^2+ Mobilization IC50
Form field: IC50 (one value per entry).
Metric: IC50 (nM)

1. CSc1ccc(Cn2c(=O)nc(NCc3c(C)cc(C)nc3N)n(Cc3ccc(OC(F)F)cc3)c2=O)cc1 207
2. COc1ccc(Cn2c(NCc3c[n+]([O-])c(C)cc3C)nc(=O)n(Cc3ccc(OC)cc3)c2=O)cc1 1370
3. Cc1cc(C)c(CNc2nc(=O)n(Cc3ccc4c(c3)OCO4)c(=O)n2Cc2ccc(OC(F)F)cc2)cn1 1270
4. COc1ccc(Cn2c(=O)nc(NCc3cnc(C)cc3C)n(Cc3ccc(SC)cc3)c2=O)cc1 533
